Reference source for all entries: patent US20220073643A1

- system under test: T1, human Claudin18.2 (human)
- T1 construct: also called CLDN18.2
- assay notes: FACS, Claudin18.2-HEK293 cells
measurement kind: EC50 (nM)
Write down the numeric answer in nM and omit the unit.

Worked cases, answers included:
{"binder": "chimeric 429H6C5 (antibody, human IgG1, kappa, V domains shown, chimeric, human IgG1/kappa constant regions) VH: DVQLVESGGGLVQPGGSRKLSCAASGFTFSSFGMHWVRQAPEKELEWVAYISSGSSTIYYAHTVKGRFTISRDNPKNTLFLRMTSLGSEDTAMYYCVRFYYGNSFVNWGQGTLVTVSA VL: DIVMTQSPSSLTATAGEKVTMSCKSSQSLLNSGNQKNYLTWYQQKPGQPPKMLIYWASTRESGVPDRFAGSGSGTDFTLTISSVQAEDLAVYYCQNAYIYPLTFGAGTRLELKR", "EC50 [nM]": 0.908}
{"binder": "chimeric 418D2F9 (antibody, human IgG1, kappa, V domains shown, chimeric, human IgG1/kappa constant regions) VH: DVQLVESGGGLVQPGGSRKLSCAASGFTFSSFGMHWVRQAPEKGLEWVAYINTGSSTIYYADTVKGRFTISRDNPKNTLFLQMTSLRSEDTAMYYCARIYYGNSFVYWGQGTLVTVSA VL: DIVMTQSPSSLTVTAGEKVTMSCKSSQSLLNSGNQKNYLTWYQQKPGQPPKLLIYWASTRESGVPDRFTGSGSGTDFTLTISSVQAEDLAVYYCQNDYSYPLTFGAGTKLELKR", "EC50 [nM]": 0.65}
{"binder": "chimeric 418G6A5 (antibody, human IgG1, kappa, V domains shown, chimeric, human IgG1/kappa constant regions) VH: DVQLVESGGGLVQPGGSRKLSCVASGFTFSSFGMHWVRQAPEKGLEWVAYISSGSSPMYYADTVKGRFTISRDNPKNTLFLQMTSLRSEDTAMYFCARIYYGNSFAYWGQGTLVTVSA VL: DIVMTQSPSSLTVTAGEKVTMSCKSSQSLLNSGNQKNYLTWYQQKPGQPPKLLIYWASTRESGVPDRFTGSGSGTDFTLTISSVQAEDLAVYYCQNAYSYPLTFGAGTKLELKR", "EC50 [nM]": 0.595}
{"binder": "chimeric 419B5G9 (antibody, human IgG1, kappa, V domains shown, chimeric, human IgG1/kappa constant regions) VH: DVQLVESGGGLVQPGGSRKLSCAASGFTFSTFGMHWVRQAPEKGLEWVAYISGGSTTIFYADTVKGRFTISRDNPKNTLFLQMTSVRSEDTAMYYCARFYYGNSFAYWGPGTLVTVST VL: DIVMTQSPSSLTVTAGEKVTMSCKSSQSLLNSGNQKNYLTWYQQKPGQPPKMLIYWASTRESGVPDRFTGSGSGTDFTLTISSVQAEDLAVYYCQNAYSYPLTFGAGTKLELKR", "EC50 [nM]": 1.23}

Consider the additional binder presented here.
EC50 reported for this binder IMAB362 analog (Claudiximab, Zolbetuximab) (antibody, V domains shown, in-house prepared analog; chimeric IgG1) VH: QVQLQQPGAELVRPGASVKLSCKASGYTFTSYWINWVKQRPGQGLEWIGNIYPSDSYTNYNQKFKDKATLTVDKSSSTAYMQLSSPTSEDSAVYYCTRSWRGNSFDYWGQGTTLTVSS VL: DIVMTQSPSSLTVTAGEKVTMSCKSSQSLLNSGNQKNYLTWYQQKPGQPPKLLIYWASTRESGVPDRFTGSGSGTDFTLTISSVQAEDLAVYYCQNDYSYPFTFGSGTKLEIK : 0.517
